The values you see were collected from PubChem BioAssay (EPA / NIEHS).

Experiment summary: ATG_CMV_CIS: Attagene CIS-FACTORIAL HepG2 Assay for human CMV (Internal Marker) (AID 2282928);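 further: endpoint acts as a background internal control marker rather than a target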
Measurement setup: HepG2 CMV promoter reporter, transcription factor profiling; actives raise or lower the signal
Activity calls are given as the source filed them. How the source made its calls: active means hit-call score of the fitted dose curve at least 0.9, where 1 is the maximum; inactive means score below 0.9.
Outcomes you can answer with include only these: active, inactive

# count of solved cases: 5
Compound	Assigned label
N#[N+]c1ccc2c(S(=O)(=O)[O-])cccc2c1O	inactive
O=C(c1ccccc1)C1CCC1	inactive
N#CCc1ccc(Cl)cc1Cl	inactive
O=C(Cl)c1cc(C(=O)Cl)cc(C(=O)Cl)c1	inactive
Nc1ccc2cc3ccccc3cc2c1	inactive

Could you kindly confirm the outcome this assay logged for CCC(C)C=O (centres undefined) ?
inactive

Could you kindly confirm the outcome this assay logged for `CCO[Si](CCCN=C=O)(OCC)OCC` ?
inactive

Could you kindly confirm the outcome this assay logged for `O=C1CCCCCCCCCCCCCCCO1` ?
active

Could you kindly confirm the outcome this assay logged for `CC(C)(C)c1ccc(OC(=O)c2ccccc2O)cc1` ?
active

====

Read-out: CD40, CD40 (gene 958)
Experiment summary: BSK_SAg_CD40: BioMAP Diversity Plus: SAg Assay for CD40 Biomarker Activity (AID 2283088)
Measurement setup: primary human HUVEC with PBMC; actives raise or lower the signal
Calls of active or inactive are those of the source. How the source made its calls: active means hit-call score of the fitted dose curve at least 0.9, where 1 is the maximum; inactive means score below 0.9.
Outcomes you can answer with include only these: TRUE = active, FALSE = inactive

Molecule	Assigned label
O=c1c2ccccc2oc2ccccc12	FALSE
CC(C)C(=O)C(C)C	FALSE
CCCCC/C=C\C/C=C\CCCCCCCC(=O)OC	TRUE
CCO[Si](CCCN=C=O)(OCC)OCC	FALSE
CCOc1nc(F)cc2nc(S(=O)(=O)Nc3c(Cl)cccc3C(=O)OC)nn12	FALSE
C/C=C\C/C=C/CCCCCCCCOC(C)=O	TRUE
CCO[Si](C)(OCC)OCC	FALSE
O=C(Cl)c1cc(C(=O)Cl)cc(C(=O)Cl)c1	TRUE
c1ccc2c(c1)ccc1cc3c(ccc4ccccc43)cc12	FALSE
CCCCCCCCCCCCCCCC[N+](C)(C)CC	TRUE

Could you kindly confirm the outcome this assay logged for `CCCCNc1ccc(NCCCC)c2c1C(=O)c1ccccc1C2=O` ?
FALSE

Could you kindly confirm the outcome this assay logged for `COCc1c(C(C)C)nc(C(C)C)c(/C=C/[C@@H](O)C[C@@H](O)CC(=O)O)c1-c1ccc(F)cc1` ?
TRUE

Could you kindly confirm the outcome this assay logged for C#CC1(O)CC[C@H]2[C@@H]3CCC4=CCCC[C@@H]4[C@H]3CC[C@@]21C (some centres not stated) ?
TRUE

Could you kindly confirm the outcome this assay logged for `CO[Si](OC)(OC)c1ccccc1` ?
FALSE

Could you kindly confirm the outcome this assay logged for CCCCC(CC)COCC1CO1 (configuration not stated) ?
FALSE

Could you kindly confirm the outcome this assay logged for CN1C(=O)N(C)C(O)C1O (configuration not stated) ?
FALSE

Could you kindly confirm the outcome this assay logged for `N#[N+]c1ccc2c(S(=O)(=O)[O-])cccc2c1O` ?
FALSE

====

Measured on: Nuclear respiratory factor 1 (Homo sapiens) (UniProt Q16656)
Sequence (Q16656 whole entry, looked up): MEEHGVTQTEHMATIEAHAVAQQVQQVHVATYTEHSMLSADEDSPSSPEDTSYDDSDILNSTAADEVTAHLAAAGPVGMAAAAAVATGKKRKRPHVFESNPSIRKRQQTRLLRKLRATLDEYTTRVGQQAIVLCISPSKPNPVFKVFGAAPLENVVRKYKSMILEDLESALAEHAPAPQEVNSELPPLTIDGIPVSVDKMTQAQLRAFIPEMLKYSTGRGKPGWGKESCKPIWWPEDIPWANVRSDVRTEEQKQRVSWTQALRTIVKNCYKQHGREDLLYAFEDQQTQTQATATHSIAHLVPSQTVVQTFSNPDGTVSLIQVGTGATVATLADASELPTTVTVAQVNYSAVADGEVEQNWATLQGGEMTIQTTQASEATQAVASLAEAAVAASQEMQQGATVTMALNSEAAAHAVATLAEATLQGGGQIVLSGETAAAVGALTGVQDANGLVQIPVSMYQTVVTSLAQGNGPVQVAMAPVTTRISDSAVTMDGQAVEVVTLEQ
Experiment summary: ATG_NRF1_CIS: Attagene CIS-FACTORIAL HepG2 Assay for human Nuclear Respiratory Factor 1 (NRF1) Orphan Gene (AID 2282987)
Measurement setup: HepG2 NRF1 cis-element reporter, Attagene multiplex; actives raise or lower the signal
Calls of active or inactive are those of the source. Rule for the calls: active = hit-call score of the fitted dose curve at least 0.9, where 1 is the maximum; inactive = score below 0.9.
Outcomes you can answer with include only these: active, inactive

# count of solved cases: 5
Compound	Measured on	Assigned label
O=C(Cl)c1cc(C(=O)Cl)cc(C(=O)Cl)c1	Nuclear respiratory factor 1 (Homo sapiens) (UniProt Q16656)	inactive
C1=CCCC1	Nuclear respiratory factor 1 (Homo sapiens) (UniProt Q16656)	inactive
c1ccc2c(c1)ccc1ncccc12	Nuclear respiratory factor 1 (Homo sapiens) (UniProt Q16656)	inactive
O=C(Nc1cccc(C(F)(F)F)c1)c1cc(Br)cc(Br)c1O	Nuclear respiratory factor 1 (Homo sapiens) (UniProt Q16656)	active
COC(=O)/C=C\C(=O)O	Nuclear respiratory factor 1 (Homo sapiens) (UniProt Q16656)	inactive

Could you kindly confirm the outcome this assay logged for `CCCCCCCCCCOC(C)=O` ?
inactive

Could you kindly confirm the outcome this assay logged for `Cc1cc(C)c(C)c(O)c1` ?
inactive

Could you kindly confirm the outcome this assay logged for `COC(=O)c1ccc2cc(C(=O)OC)ccc2c1` ?
inactive

Could you kindly confirm the outcome this assay logged for `CCOC(=O)CC(C(C)=O)C(C)=O` ?
inactive

Could you kindly confirm the outcome this assay logged for `CC(=O)Oc1ccc(C(C)=O)cc1` ?
inactive

Could you kindly confirm the outcome this assay logged for O=C(OCC1CCC2OC2C1)C1CCC2OC2C1 (stereo not given) ?
inactive

Could you kindly confirm the outcome this assay logged for CC(C)(Oc1ccc(C2CC2(Cl)Cl)cc1)C(=O)O (stereo not given) ?
inactive

Could you kindly confirm the outcome this assay logged for `O=[N+]([O-])c1ccc(CO)cc1` ?
inactive

Could you kindly confirm the outcome this assay logged for `Nc1ccc(-c2ccc(F)cc2)cc1` ?
inactive

Could you kindly confirm the outcome this assay logged for `OCCc1ccncc1` ?
inactive

====

Experiment summary: ATG_M_19_CIS: Attagene CIS-FACTORIAL HepG2 Assay for M19 Transcription Factor (Internal Marker) (AID 2282939)
Measurement setup: HepG2 Attagene CIS-FACTORIAL M19 internal marker reporter; actives raise or lower the signal
Active and inactive are the calls of the source. Rule for the calls: active = hit-call score of the fitted dose curve at least 0.9, where 1 is the maximum; inactive = score below 0.9.
Outcomes you can answer with include only these: active, inactive

Could you kindly confirm the outcome this assay logged for `CC(C)(c1cc(Br)c(OCCO)c(Br)c1)c1cc(Br)c(OCCO)c(Br)c1` ?
active

Could you kindly confirm the outcome this assay logged for `CC(=O)NS(=O)(=O)c1ccc(N)cc1` ?
inactive

Could you kindly confirm the outcome this assay logged for `Cc1oncc1C(=O)Nc1ccc(C(F)(F)F)cc1` ?
inactive

Could you kindly confirm the outcome this assay logged for `O=c1n(CCO)c(=O)n(CCO)c(=O)n1CCO` ?
inactive

Could you kindly confirm the outcome this assay logged for `CCOC(=O)NNc1nncc2ccccc12` ?
inactive

Could you kindly confirm the outcome this assay logged for OC1OCCOC1O (configuration not stated) ?
inactive

Could you kindly confirm the outcome this assay logged for `NC(=O)NNC(N)=O` ?
inactive

====

Measured on: Cellular tumor antigen p53 (Homo sapiens) (UniProt P04637)
Sequence (P04637 whole entry, looked up): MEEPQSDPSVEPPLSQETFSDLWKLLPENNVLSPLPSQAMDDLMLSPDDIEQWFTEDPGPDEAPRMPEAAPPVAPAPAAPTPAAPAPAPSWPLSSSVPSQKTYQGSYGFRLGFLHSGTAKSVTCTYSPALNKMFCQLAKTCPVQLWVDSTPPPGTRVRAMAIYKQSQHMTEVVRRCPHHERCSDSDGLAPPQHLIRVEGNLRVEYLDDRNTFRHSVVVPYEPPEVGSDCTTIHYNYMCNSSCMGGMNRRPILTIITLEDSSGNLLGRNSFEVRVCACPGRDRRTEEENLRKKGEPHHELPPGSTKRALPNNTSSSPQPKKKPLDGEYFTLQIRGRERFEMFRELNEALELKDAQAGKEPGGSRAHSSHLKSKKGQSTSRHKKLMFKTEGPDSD
Experiment summary: TOX21_p53_BLA_p3_ratio: Tox21 HCT-116 p53 Agonism Beta-lactamase Assay, Ratio, Phase 3 (AID 2283596)
Protocol: TOX21_p53_BLA_p3 is a cell-based, single-readout assay that uses HCT116, a human intestinal cell line, […] in a 1536-well plate.TOX21_p53_BLA_p3_ratio is an assay readout measuring reporter gene via receptor activity and designed using inducible reporter (beta lactamase induction) detected with GAL4 b-lactamase reporter gene. […] This assay endpoint, TOX21_p53_BLA_p3_ratio, was analyzed in the positive analysis fitting direction relative to DMSO as the negative control and baseline of activity. […]
Records with an inconclusive call do not appear. Activity calls are given as the source filed them. How the source made its calls: active means hit-call score of the fitted dose curve at least 0.9, where 1 is the maximum; inconclusive means response in the unintended direction; inactive means score below 0.9.
Outcomes you can answer with include only these: T for active, F for inactive

# count of solved cases: 3
Compound	Assigned label
COCC(C)N (stereo not drawn)	F
O=S(=O)(O)CC(O)CCl (stereo not drawn)	F
CCCOC(=O)CCCCC(=O)OCCC	F

Could you kindly confirm the outcome this assay logged for `CC(C)(c1cc(Br)c(OCCO)c(Br)c1)c1cc(Br)c(OCCO)c(Br)c1` ?
T

Could you kindly confirm the outcome this assay logged for OC1OCCOC1O (stereo not drawn) ?
F

Could you kindly confirm the outcome this assay logged for `NC(=O)OCC(COC(N)=O)c1ccccc1` ?
F

Could you kindly confirm the outcome this assay logged for `SCCc1cnccn1` ?
T

Could you kindly confirm the outcome this assay logged for `CCCCOCCOC(=O)COc1nc(Cl)c(Cl)cc1Cl` ?
F

====

Measured on: Estrogen receptor (Homo sapiens)
Experiment summary: ATG_ERa_TRANS: Attagene TRANS-FACTORIAL HepG2 Assay for human Estrogen Receptor alpha (ERa) (AID 2282970)
Measurement setup: HepG2 Attagene TRANS ERa GAL4 reporter, mRNA
Inconclusive results are not listed. The source made the active and inactive calls. Rule for the calls: active = hit-call score of the fitted dose curve at least 0.9, where 1 is the maximum; inconclusive = response in the unintended direction; inactive = score below 0.9.
Outcomes you can answer with include only these: t (active), f (inactive)

# count of solved cases: 4
Compound	Assigned label
CC(C)(c1cc(Br)c(OCCO)c(Br)c1)c1cc(Br)c(OCCO)c(Br)c1	f
Cc1cc(C)c(C)cc1C	f
CN(C)c1ccc(N=Nc2ccccc2C(=O)O)cc1	f
N#[N+]c1ccc2c(S(=O)(=O)[O-])cccc2c1O	f

Could you kindly confirm the outcome this assay logged for `O=C(O)CCCC[C@@H]1SC[C@@H]2NC(=O)N[C@@H]21` ?
f

Could you kindly confirm the outcome this assay logged for C=CC(C)(CCC=C(C)C)OC(=O)CC(C)C (configuration not stated) ?
f

Could you kindly confirm the outcome this assay logged for `CC=CC(=O)N(CC)c1ccccc1C` ?
f

Could you kindly confirm the outcome this assay logged for `NC(=O)c1ccccc1O` ?
f

Could you kindly confirm the outcome this assay logged for `NC(=O)OCC(COC(N)=O)c1ccccc1` ?
f

Could you kindly confirm the outcome this assay logged for `CCN(CCO)c1cccc(C)c1` ?
f

Could you kindly confirm the outcome this assay logged for `Cc1cc(O)c(Cl)c(C)c1Cl` ?
t

Could you kindly confirm the outcome this assay logged for `Cc1ccc(C(C)c2ccc(C)c(C)c2)cc1C` ?
f
